- Measurement Target: human recombinant HDAC6 (Homo sapiens, UniProt Q9UBN7)
- Construct: purchased Calbiochem 382180
- Sequence (Q9UBN7 whole entry): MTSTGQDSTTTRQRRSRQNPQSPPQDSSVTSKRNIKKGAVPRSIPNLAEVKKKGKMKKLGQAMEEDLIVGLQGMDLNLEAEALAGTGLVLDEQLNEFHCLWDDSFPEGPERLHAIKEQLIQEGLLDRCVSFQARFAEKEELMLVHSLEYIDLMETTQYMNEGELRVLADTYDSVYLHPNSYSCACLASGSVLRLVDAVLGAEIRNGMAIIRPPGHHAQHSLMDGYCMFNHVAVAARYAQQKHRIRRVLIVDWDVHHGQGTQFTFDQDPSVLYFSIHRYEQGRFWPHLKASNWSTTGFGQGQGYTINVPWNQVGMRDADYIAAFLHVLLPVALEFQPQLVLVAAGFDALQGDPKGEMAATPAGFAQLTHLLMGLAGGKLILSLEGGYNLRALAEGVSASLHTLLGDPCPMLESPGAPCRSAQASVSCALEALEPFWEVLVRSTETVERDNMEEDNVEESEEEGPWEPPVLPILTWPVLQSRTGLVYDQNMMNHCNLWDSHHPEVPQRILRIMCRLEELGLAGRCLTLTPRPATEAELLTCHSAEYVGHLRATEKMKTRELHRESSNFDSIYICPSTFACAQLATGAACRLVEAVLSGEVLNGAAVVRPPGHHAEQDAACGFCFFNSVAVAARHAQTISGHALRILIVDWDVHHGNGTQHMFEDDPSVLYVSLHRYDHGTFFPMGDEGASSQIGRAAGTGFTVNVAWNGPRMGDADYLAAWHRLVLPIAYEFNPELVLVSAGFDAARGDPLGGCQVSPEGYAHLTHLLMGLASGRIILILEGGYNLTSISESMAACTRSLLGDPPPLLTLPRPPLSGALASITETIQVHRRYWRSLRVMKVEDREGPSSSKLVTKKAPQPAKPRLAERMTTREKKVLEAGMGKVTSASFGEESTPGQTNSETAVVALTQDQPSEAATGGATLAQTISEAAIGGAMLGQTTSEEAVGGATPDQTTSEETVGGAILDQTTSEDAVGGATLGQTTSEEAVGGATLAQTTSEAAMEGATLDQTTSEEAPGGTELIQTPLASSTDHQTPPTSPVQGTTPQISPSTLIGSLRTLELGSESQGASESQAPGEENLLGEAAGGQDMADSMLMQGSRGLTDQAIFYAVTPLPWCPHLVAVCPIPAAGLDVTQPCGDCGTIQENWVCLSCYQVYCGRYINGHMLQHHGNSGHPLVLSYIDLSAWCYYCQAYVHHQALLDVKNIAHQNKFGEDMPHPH
- Protocol Text: HDAC6 enzyme activity inhibition assay (HDAC Fluorimetric Drug Discovery Kit)
- Assay type: biochemical
- Condition Context: HDAC1 vs HDAC6
Measured Endpoint: HDAC6 selectivity (fold)

Below: 3 molecules and their reported HDAC6 selectivity (fold).
>>> value("CC(=O)N1CC(N2CCC(S(=O)(=O)N(Cc3ccc(-c4nnc(C(F)F)o4)cc3)c3cccc(Cl)c3)CC2)C1")
2493
>>> value("O=S(=O)(CCCN1CCCCC1)N(Cc1ccc(-c2nnc(C(F)F)o2)cc1)c1ccccc1")
1219
>>> value("O=S(=O)(CCCN1CCCC1)N(Cc1ccc(-c2nnc(C(F)F)o2)cc1)c1ccccc1")
3626

[A] Cc1cccc(N(Cc2ccc(-c3nnc(C(F)(F)F)o3)cc2F)S(C)(=O)=O)c1
[B] O=S(=O)(CCCN1CCOCC1)N(Cc1ccc(-c2nnc(C(F)F)o2)cc1F)c1ccccc1
[C] CS(=O)(=O)N(Cc1ccc(-c2nnc(C(F)F)o2)cc1F)c1cncc(F)c1
# sort list by recorded HDAC6 selectivity (fold), greatest to least The labels, placed in the requested order, form the answer.
C, B, A
(C: 3704 fold, B: 2273 fold, A: 332 fold)

[A] COc1ccccc1N(Cc1ccc(-c2nnc(C(F)(F)F)o2)cc1F)S(C)(=O)=O
[B] O=S(=O)(CCN1CCN(c2ccncc2)CC1)N(Cc1ccc(-c2nnc(C(F)F)o2)cc1)c1ccccc1
[C] CS(=O)(=O)N(Cc1ccc(-c2nnc(C(F)(F)F)o2)cc1F)c1ccc2c(c1)OCO2
[D] CCS(=O)(=O)N(Cc1ccc(-c2nnc(C(F)F)o2)cn1)c1cccc2c1cnn2C
Write the entries in order, lowest recorded HDAC6 selectivity (fold) first. I'd appreciate it if you listed the labels in the requested order.
C, A, B, D
(C: 297 fold, A: 1000 fold, B: 2610 fold, D: 4348 fold)

[1] CS(=O)(=O)N(Cc1ccc(-c2nnc(C(F)F)o2)cc1)CC12CC3CC(CC(C3)C1)C2
[2] CC(=O)c1cccc(N(Cc2ccc(-c3nnc(C(F)F)o3)cc2F)S(C)(=O)=O)c1
Between the two listed entries 1 and 2 , which has its HDAC6 selectivity (fold) at the higher number? State your choice using its label.
2
(2: 3448 fold, 1: 724 fold)

[1] O=S(=O)(CCN1CC[C@@H](O)C1)N(Cc1ccc(-c2nnc(C(F)F)o2)cc1)c1ccccc1
[2] CC1CCN(CCS(=O)(=O)N(Cc2ccc(-c3nnc(C(F)F)o3)cc2)c2ccccc2)CC1
Between 1 and 2 , which one shows the smaller HDAC6 selectivity (fold) number? Record your answer as the label of the chosen record.
2

Origin of the recorded values: patent US10538498B2
